# measurement notes: Caspase-3/7 induction in HepG2 cells by small molecules, qHTS cell viability counter screen (AID 1346981); note: nearly all actives have a fitted effect of over 30% in size
# study conditions: CellTiter-Fluor fluorescence, 17 h; series mostly up to 92.4 µM
Inconclusive results are not listed. The source made the active and inactive calls. Calls come from the whole dose curve; as a rule, active = well fitted cell-killing curve with a large enough effect in the repeat runs; inconclusive = weak or mixed curves, or effect the other way; inactive = flat fitted curve, though single readings scatter.
Possible outcomes: active, inactive

>  <compound>
CCSC(=O)N(CC)CC

>  <class assignment>
inactive

$$$$
>  <compound>
CC(C)(C)C1(CCc2ccc(Cl)cc2)CO1 (stereo not drawn)

>  <class assignment>
inactive

$$$$
>  <compound>
SCCc1cnccn1

>  <class assignment>
inactive

$$$$
>  <compound>
O=C(Nc1ccc(C(=O)O)c(O)c1)c1ccccc1

>  <class assignment>
inactive

$$$$
>  <compound>
COc1ccc(/C=C/C(=O)c2ccc(OC)cc2OC)cc1

>  <class assignment>
inactive

$$$$
>  <compound>
Nc1ccc(S(=O)(=O)NCc2ccccc2)cc1

>  <class assignment>
inactive

$$$$
>  <compound>
CCOc1ncc(F)c(=O)[nH]1

>  <class assignment>
inactive

$$$$
>  <compound>
CN=C(N)NC(=O)Nc1c(C)cccc1C

>  <class assignment>
inactive

$$$$
>  <compound>
CCN(CC)c1ccc(C(=C2C=CC(=[N+](CC)CC)C=C2)c2ccc(S(=O)(=O)O)cc2S(=O)(=O)[O-])cc1

>  <class assignment>
active

$$$$
>  <compound>
c1ccc(CNc2ncnc3c2ncn3C2CCCCO2)cc1 (stereo not drawn)

>  <class assignment>
inactive

$$$$
>  <compound>
C[C@H](CS)C(=O)N1CCC[C@H]1C(=O)O

>  <class assignment>
inactive

$$$$
>  <compound>
FC(F)(F)C(F)(F)C(F)(F)C(F)(F)CCI

>  <class assignment>
inactive

$$$$
>  <compound>
O=P(O)(O)Oc1ccccc1

>  <class assignment>
inactive

$$$$
>  <compound>
O=C(C(=O)c1ccco1)c1ccco1

>  <class assignment>
inactive

$$$$
>  <compound>
COC(=O)Nc1nc2ccc(C(=O)C3CC3)cc2[nH]1

>  <class assignment>
inactive

$$$$
>  <compound>
CO[C@@H]1[C@@H](OC)[C@H](C)[C@@](O)(CC(=O)O)O[C@H]1[C@H](C)[C@H]1O[C@@]2(CC[C@@](C)([C@H]3CC[C@@](C)([C@@H]4O[C@@H]([C@H]5O[C@](C)(O)[C@H](C)C[C@@H]5C)C[C@@H]4OC4C[C@H](OC)[C@@H](OC)[C@H](C)O4)O3)O2)C[C@H](O)[C@H]1C (stereo partly drawn)

>  <class assignment>
active

$$$$
>  <compound>
Cc1c(C2(c3cc(Br)c(O)c(Br)c3C)OS(=O)(=O)c3ccccc32)cc(Br)c(O)c1Br

>  <class assignment>
active

$$$$
>  <compound>
CC(=O)OCCC1CCCCC1

>  <class assignment>
inactive

$$$$
>  <compound>
O=C(O)CNC(=O)c1ccccc1I

>  <class assignment>
inactive

$$$$
>  <compound>
CCCCOCCOC(=O)c1cccnc1

>  <class assignment>
inactive

$$$$
>  <compound>
COc1ccc(C(=O)NCc2ccc(OCCN(C)C)cc2)cc1OC

>  <class assignment>
inactive

$$$$
>  <compound>
CCCCCCCC/C=C/C(=O)O

>  <class assignment>
inactive

$$$$
>  <compound>
C[C@@H]1C[C@H]2[C@@H]3CCC4=CC(=O)C=C[C@]4(C)[C@@]3(F)[C@@H](O)C[C@]2(C)[C@@]1(O)C(=O)COP(=O)(O)O

>  <class assignment>
inactive

$$$$
